Entries annotated with measured INHIBITION
System: Plasmodium berghei
assay.name: Screen against P. berghei liver stage (PbLuc), transformed with Luciferase, at 2uM
Type: functional, HepG2
condition: tested at 2 uM
Out of some 68,000 compounds screened, about 2,700 (4%) showed an effect of 50% or more. This excerpt belongs to a sample that is enriched for strong results.

// worked examples, INHIBITION included
Cc1cccc(OCCN2CCC(c3ccnn3CCO)CC2)c1 :: 7.13%
CN(CCc1ccccn1)C(=O)c1cn2c(n1)CNCC2 :: 25.55%
CN(CCSc1ccccc1)C(=O)c1cn2c(n1)CNCC2 :: 54.29%
CC(C)N(C)S(=O)(=O)N1CCCC1CC(=O)c1cccs1 (stereo unspecified) :: 2.71%
Cc1cncc(C(=O)N2CC[C@@]3(C[C@H](NS(C)(=O)=O)CCO3)C2)c1 :: 17.83%

Query: Record request: INHIBITION value, item `CCCS(=O)(=O)N1CCC2(CC1)CC(=O)N(Cc1cc(F)cc(F)c1)C2`
Response: 8.76%
